# Target Or Test System: T1, human CD71 extracellular domain (human, UniProt P02786 89-760)
# T1 construct: also called hCD71; CD71-ECD
# T1 sequence (P02786 89-760): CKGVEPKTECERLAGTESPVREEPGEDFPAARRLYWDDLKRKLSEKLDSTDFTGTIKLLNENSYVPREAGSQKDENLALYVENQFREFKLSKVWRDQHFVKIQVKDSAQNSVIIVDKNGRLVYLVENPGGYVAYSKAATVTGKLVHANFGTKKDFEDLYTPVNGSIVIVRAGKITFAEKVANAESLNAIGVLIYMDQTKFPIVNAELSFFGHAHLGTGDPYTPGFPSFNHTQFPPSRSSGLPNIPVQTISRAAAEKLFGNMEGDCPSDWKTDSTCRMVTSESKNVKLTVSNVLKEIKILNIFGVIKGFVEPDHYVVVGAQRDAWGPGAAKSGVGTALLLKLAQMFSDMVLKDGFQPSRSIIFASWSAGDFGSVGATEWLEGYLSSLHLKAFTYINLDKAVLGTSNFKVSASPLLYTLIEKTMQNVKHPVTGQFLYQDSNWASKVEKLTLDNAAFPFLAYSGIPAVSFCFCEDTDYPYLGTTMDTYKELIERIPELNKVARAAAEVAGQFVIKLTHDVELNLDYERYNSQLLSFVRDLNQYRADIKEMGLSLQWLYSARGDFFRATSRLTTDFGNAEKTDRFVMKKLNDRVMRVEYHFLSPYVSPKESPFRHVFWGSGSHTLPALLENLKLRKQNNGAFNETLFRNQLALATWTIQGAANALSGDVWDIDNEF
# Assay Comment: primary ELISA; also: test concentration or dose not given here
Overview of recorded RLU for various binders
I only need the number, in RLU, no unit after it.

CD71-binding FN3 domain SEQ ID NO 402 (designed binder) MLPAPKNLVVSRVTEDSARLSWTAPDAAFDSFGIYYWEYTGGEAIVLTVPGSERSYDLTGLKPGTEYVVRILGVKGGAYSTPLSAIFTT; 2.17e+06
CD71-binding FN3 domain SEQ ID NO 413 (designed binder) MLPAPKNLVVSRVTEDSARLSWTAPDAAFDSFFIGYLEPQPPGEAIYLRVPGSERSYDLTGLKPGTEYNVTIQGVKGGFPSAPLHAHFTT; 3.86e+06
CD71-binding FN3 domain SEQ ID NO 437 (designed binder) MLPAPKNLVVSRVTEDSARLSWTAPDAAFDSFFIGYLEPQPPGEAISLWVPGSERSYDLTGLKPGTEYNVTIQGVKGGFPSTPLSAKFTT; 3.22e+06
CD71-binding FN3 domain SEQ ID NO 424 (designed binder) MLPAPKNLVVSRVTEDSARLSWTAPDAAFDSFFIGYLEPQPPGEAIHLIVPGSERSYDLTGLKPGTEYNVTIQGVKGGFPSDPLDASFTT; 3.9e+06

Documented RLU of CD71-binding FN3 domain SEQ ID NO 347 (designed binder) MLPAPKNLVVSRVTEDSARLSWTAPDAAFDSFFIGYLEPQPPGEAIGLFVPGSERSYDLTGLKPGTEYNVTIQGVKGGFPSEPLKAAFTT : 4.1e+06
